Biological target: human GCG receptor (human, UniProt P47871 26-477)
Sequence (P47871 26-477): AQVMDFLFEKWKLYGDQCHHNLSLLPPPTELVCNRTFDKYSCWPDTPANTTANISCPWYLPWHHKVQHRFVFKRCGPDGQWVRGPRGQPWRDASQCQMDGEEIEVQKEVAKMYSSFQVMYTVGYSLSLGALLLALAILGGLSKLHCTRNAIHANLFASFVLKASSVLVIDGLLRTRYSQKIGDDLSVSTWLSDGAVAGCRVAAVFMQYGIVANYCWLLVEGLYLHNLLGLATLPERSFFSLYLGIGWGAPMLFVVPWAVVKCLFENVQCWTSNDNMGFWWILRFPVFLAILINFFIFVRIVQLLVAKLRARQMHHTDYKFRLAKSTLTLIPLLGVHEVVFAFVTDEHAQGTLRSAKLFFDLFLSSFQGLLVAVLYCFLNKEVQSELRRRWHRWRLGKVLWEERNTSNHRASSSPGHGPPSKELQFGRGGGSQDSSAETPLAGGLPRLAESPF
Assay: cell-based or functional assay
Bridges are numbered along the chain shown (N, C = ends). Where no end group is shown, it is not given here. [ ]: non-standard residue; d: D form. The star is where a group is joined. Acetyl(2-(4-imidazolyl)) = O=C(Cc1c[nH]cn1)*; Aib = CC(C)(N)C(=O)O
In plain terms, low In vitro activity relative to native peptide (%) vs. Glucagon, meaning strictly below 5%, gives YES, and everything else gives NO.

binder	label class
H[Aib]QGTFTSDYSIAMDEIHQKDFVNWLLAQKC (bridge 16-20) [triple agonist of SEQ ID NO: 33]	YES

Query string: Please determine if Y[Aib]QGTFTSDYSKYLDEKRAKDFVQWLLDHHPSSGQPPPSC (bridge 16-20) [triple agonist of SEQ ID NO: 76] is below 5% in terms of In vitro activity relative to native peptide (%) vs. Glucagon.
Result string: NO

Query string: A record lists [Acetyl(2-(4-imidazolyl))][Aib]QGTFTSDYSIAMDEKHCKDFVNWLLNTK (bridge 16-20; not fully specified) [triple agonist of SEQ ID NO: 60] . Is its In vitro activity relative to native peptide (%) vs. Glucagon below 5%?
Result string: YES

Query string: Lab note: In vitro activity relative to native peptide (%) vs. Glucagon threshold 5%. Does this binder come in strictly under it? HGQGTFTSDCSKQLDGQAAQEFVAWLLAGGPSSGAPPPS [triple agonist of SEQ ID NO: 44]
Result string: YES

Query string: Given {Acetyl(2-(4-imidazolyl))}-[Aib]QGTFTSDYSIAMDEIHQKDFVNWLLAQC (bridge 15-19) [triple agonist of SEQ ID NO: 85] , is recorded In vitro activity relative to native peptide (%) vs. Glucagon strictly lower than 5%?
Result string: YES

Query string: Does the reported In vitro activity relative to native peptide (%) vs. Glucagon of the following binder sit strictly below 5%? H[Aib]QGTFTSDVSSYLDGQAQKEFIAWLVKGC [triple agonist of SEQ ID NO: 2]
Result string: YES

Query string: Is In vitro activity relative to native peptide (%) vs. Glucagon strictly under 5% for the entry {Acetyl(2-(4-imidazolyl))}-[Aib]QGTFTSDYSKYLDEKRQKEFVQWLLDTC (bridge 15-19) [triple agonist of SEQ ID NO: 82] ?
Result string: YES

Query string: Check if In vitro activity relative to native peptide (%) vs. Glucagon falls below 5% for Y[Aib]QGTFTSDYSKYLDECRAKEFVQWLLAQKGKKNDWKHNIT (bridge 16-20) [triple agonist of SEQ ID NO: 23] .
Result string: NO

Query string: Please indicate whether the reported In vitro activity relative to native peptide (%) vs. Glucagon of [Acetyl(2-(4-imidazolyl))][Aib]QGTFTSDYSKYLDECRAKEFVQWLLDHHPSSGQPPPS (bridge 16-20; not fully specified) [triple agonist of SEQ ID NO: 73] is strictly below 5%.
Result string: NO

Query string: Would you kindly verify if In vitro activity relative to native peptide (%) vs. Glucagon of Y[Aib]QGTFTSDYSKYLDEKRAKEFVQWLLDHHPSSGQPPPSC (bridge 16-20) [triple agonist of SEQ ID NO: 42] is strictly less than 5%?
Result string: NO

Query string: Hello, is In vitro activity relative to native peptide (%) vs. Glucagon of the following binder strictly smaller than 5%? H[Aib]QGTFTSDVSKYLDGQAAQEFVAWLLKGC [triple agonist of SEQ ID NO: 8]
Result string: YES

Query string: Just wondering, is In vitro activity relative to native peptide (%) vs. Glucagon of Y[Aib]QGTFTSDYSKALDEKAAKDFVNWLLDQHPSSGQPPPSC (bridge 16-20) [triple agonist of SEQ ID NO: 102] below 5%?
Result string: NO
